Hi! I'm sharing some EC50 results obtained with D(3) dopamine receptor (Homo sapiens).
Sequence (P35462 whole entry): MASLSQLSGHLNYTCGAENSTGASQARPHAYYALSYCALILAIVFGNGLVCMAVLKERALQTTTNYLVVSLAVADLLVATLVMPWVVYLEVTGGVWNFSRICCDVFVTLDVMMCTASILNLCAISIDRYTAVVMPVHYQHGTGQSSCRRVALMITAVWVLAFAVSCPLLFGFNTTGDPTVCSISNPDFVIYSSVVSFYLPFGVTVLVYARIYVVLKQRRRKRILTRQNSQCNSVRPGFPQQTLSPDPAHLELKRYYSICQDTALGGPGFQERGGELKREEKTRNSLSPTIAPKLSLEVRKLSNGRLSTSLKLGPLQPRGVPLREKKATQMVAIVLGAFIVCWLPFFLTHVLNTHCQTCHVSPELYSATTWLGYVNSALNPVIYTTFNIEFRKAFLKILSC
Please give a number only; it is taken to be in pM.

Q: Assign EC50 to the following record: CCCN(CCN1CCN(c2ccccc2)CC1)C1CCc2ccc(O)cc2C1 (configuration not stated)
Ans: 690

Q: Report EC50, nothing else, for this compound: CCCN(CCN1CCN(c2ccccc2OC)CC1)C1CCc2c(O)cccc2C1 (single isomer, unassigned; (-))
Ans: 80

----------
Species: Homo sapiens
Test: Selectivity for human D3 receptor over human D2L receptor
MEASUREMENT_TYPE: Ratio Ki
Please reply with the number alone, leaving off any unit.

Q: Please indicate Ratio Ki recorded for CCCN(CCN1CCN(c2ccccc2OC)CC1)C1CCc2c(O)cccc2C1 (single isomer, unassigned; (+))
Ans: 4.72

Q: Return value of Ratio Ki for input CCCN(CCN1CCN(c2ccccc2)CC1)C1CCc2ccc(O)cc2C1 (stereo not given) , no commentary.
Ans: 91

Q: # return recorded Ratio Ki for entry Oc1ccc2c(c1)CC(N(CCc1cccs1)CCN1CCN(c3ccccc3)CC1)CC2 (stereo not given)
Ans: 1.03

Q: Please supply the value of reported Ratio Ki for the item CCCN(CCN1CCN(c2ccccc2)CC1)C1CCc2ccc3c(c2C1)CC(=O)N3 (stereo not given)
Ans: 8.27

Q: Give a short answer stating reported Ratio Ki for CCCN(CCN1CCN(c2cccc(Cl)c2Cl)CC1)C1CCc2c(O)cccc2C1 (racemic) .
Ans: 32.2

----------
Here's what we have: pKi numbers for D(3) dopamine receptor (Homo sapiens).
In textbook form, pKi equals minus log to base ten of the concentration in mol/L.

Q: Provide pKi, tested on D(3) dopamine receptor (Homo sapiens), for CCCN(CCN1CCN(c2ccccc2)CC1)C1CCc2cc(O)ccc2C1 (stereo not given) .
Ans: 7.95

Q: Look up and report pKi, with D(3) dopamine receptor (Homo sapiens) as system, for CCCN(CCCN1CCN(c2ccccc2)CC1)C1CCc2ccc(O)cc2C1 (stereo not given)
Ans: 7.99

Q: Enter recorded pKi with D(3) dopamine receptor (Homo sapiens) for CCCN(CCN1CCN(c2ccccc2)CC1)C1CCc2ccc(O)cc2C1 (stereo not given) here.
Ans: 8.81

Q: Give measured pKi for CCCN(CCN1CCN(c2ccccc2)CC1)C1CCc2cc(O)c(O)cc2C1 (stereo not given) (D(3) dopamine receptor (Homo sapiens)).
Ans: 8.86

Q: Report its pKi with D(3) dopamine receptor (Homo sapiens) as the test system: CCCN(CCN1CCN(c2ccccc2)CC1)C1CCc2ccc(N)cc2C1 (stereo not given)
Ans: 7.65

Q: Report pKi on D(3) dopamine receptor (Homo sapiens) for this entry: Oc1ccc2c(c1)CC(N(CCc1cccs1)CCN1CCN(c3ccccc3)CC1)CC2 (stereo not given)
Ans: 7.62

Q: Enter pKi (test system D(3) dopamine receptor (Homo sapiens)) for CCCN(CCN1CCN(c2ccccc2OC)CC1)C1CCc2c(O)cccc2C1 (racemic)
Ans: 8.55

Q: Supply pKi measured with D(3) dopamine receptor (Homo sapiens) for CCCN(CCN1CCN(c2ccccc2OC)CC1)C1CCc2c(O)cccc2C1 (single isomer, unassigned; (+)) .
Ans: 7.73

Q: Determine reported pKi for CCCN(CCN1CCN(c2ccccc2OC)CC1)C1CCc2c(O)cccc2C1 (single isomer, unassigned; (-)) ; test system: D(3) dopamine receptor (Homo sapiens).
Ans: 9.34

Q: Fill in pKi for CCCN(CCN1CCN(c2ccccc2)CC1)C1CCc2ccc3c(c2C1)CC(=O)N3 (stereo not given) tested with D(3) dopamine receptor (Homo sapiens).
Ans: 7.96
